- Study target: T1, human vascular endothelial growth factor receptor-2 Fc chimera (KDR-Fc) (human, UniProt P35968 20-764)
- T1 construct: range 1-764; also called human VEGFR-2; VEGF-R2-Fc; not shown: human IgG1 Fc
- T1 sequence (P35968 20-764 limits assumed, change not shown, form in doubt): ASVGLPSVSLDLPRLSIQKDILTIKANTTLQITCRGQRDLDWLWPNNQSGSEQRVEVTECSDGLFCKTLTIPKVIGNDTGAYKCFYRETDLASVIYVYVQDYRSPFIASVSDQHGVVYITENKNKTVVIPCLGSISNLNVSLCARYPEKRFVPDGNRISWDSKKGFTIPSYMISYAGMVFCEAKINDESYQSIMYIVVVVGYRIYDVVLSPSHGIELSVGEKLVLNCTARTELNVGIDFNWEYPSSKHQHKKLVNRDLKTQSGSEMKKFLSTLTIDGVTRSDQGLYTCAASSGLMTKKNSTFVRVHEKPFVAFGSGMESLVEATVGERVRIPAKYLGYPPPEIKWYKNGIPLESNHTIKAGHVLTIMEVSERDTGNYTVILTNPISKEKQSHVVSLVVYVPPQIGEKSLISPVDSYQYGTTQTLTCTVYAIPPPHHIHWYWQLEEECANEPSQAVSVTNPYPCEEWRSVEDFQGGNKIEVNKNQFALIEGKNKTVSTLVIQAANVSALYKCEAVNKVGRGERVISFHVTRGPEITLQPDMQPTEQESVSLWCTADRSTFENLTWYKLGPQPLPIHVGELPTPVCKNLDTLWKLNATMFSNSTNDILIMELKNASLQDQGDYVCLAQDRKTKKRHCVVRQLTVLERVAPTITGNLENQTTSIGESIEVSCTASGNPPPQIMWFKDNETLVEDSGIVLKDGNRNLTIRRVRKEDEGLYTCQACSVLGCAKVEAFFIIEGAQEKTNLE
- Experiment notes: radioactive equilibrium binding, 1 nM KDR-Fc
Measurement type: Binding to 1 nM KDR, % (%)

2′Del D1 PR4 (designed binder, Del 1-8) EVVAATPTSLLISWRHPHFPTRYYRITYGETGGNSPVQEFTVPLQPPTATISGLKPGVDYTITGYAVTLEQNDRVLLTPISINYRT | 28

a: 2′DelA5 PR4 (designed binder, Del 1-8) EVVAATPTSLLISWRHPHFPTRYYRITYGETGGNSPVQEFTVPLQPPTATISGLKPGVDYTITGYAVTWNQNGQELFTPISINYRT
b: K1 (designed binder, Del 1-8) EVVAATPTSLLISWRHPHFPTRYYRITYGETGGNSPVQEFTVPLQPPTATISGLKPGVDYTITGYAVTMGLYGHELLTPISINYRT
q: Could you check which of a and b has a smaller value for Binding to 1 nM KDR, %? Please indicate the selected item by its label.
a: a
